assayTarget: PSP24 PLGFR (Xenopus laevis, UniProt P79945)
Sequence (P79945 whole entry): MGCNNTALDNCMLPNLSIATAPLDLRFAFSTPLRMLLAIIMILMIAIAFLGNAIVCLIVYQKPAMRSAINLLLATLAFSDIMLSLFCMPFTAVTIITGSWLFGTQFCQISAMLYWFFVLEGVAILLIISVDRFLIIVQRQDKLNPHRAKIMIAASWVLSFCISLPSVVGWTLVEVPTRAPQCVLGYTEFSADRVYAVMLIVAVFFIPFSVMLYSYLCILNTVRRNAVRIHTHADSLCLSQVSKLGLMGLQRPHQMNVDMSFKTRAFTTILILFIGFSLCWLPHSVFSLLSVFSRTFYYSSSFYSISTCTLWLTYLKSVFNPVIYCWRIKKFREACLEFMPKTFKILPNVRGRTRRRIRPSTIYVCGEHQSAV
experiment: Xenopus oocyte assay: LPA-induced oscillatory chloride currents (two-electrode voltage clamp)
conditionSet: 5 nM LPA 18:1 mixed with increasing DGPP 8:0; read-out: IC50, inhibition of Ca2+-mediated inward Cl- currents elicited by LPA
quantityKind: IC50 (nM)
Give just the number in nM; leave the unit off.

Ask: Tell me reported IC50 for CCCCCCCC(=O)OC[C@H](COP(=O)(O)OP(=O)(O)O)OC(=O)CCCCCCC [DGPP 8:0, diacylglycerol pyrophosphate] , tested with PSP24 PLGFR (Xenopus laevis, UniProt P79945).
Reply: 96

---

assayTarget: human Edg-2 (Homo sapiens)
Sequence (Q92633 whole entry): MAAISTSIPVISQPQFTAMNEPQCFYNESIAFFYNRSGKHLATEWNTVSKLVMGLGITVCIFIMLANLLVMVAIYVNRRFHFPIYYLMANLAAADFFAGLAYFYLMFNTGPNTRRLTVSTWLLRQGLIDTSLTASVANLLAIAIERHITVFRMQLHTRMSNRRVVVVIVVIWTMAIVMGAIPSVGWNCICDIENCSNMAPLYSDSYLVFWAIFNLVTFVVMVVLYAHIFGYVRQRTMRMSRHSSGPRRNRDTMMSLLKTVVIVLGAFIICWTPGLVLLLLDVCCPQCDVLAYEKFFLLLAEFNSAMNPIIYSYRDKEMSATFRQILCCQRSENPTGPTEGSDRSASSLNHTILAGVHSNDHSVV
experiment: Ca2+ responses (Fura-2) in RH7777 cells expressing Edg-2
conditionSet: LPA constant at its EC50 (250 nM LPA 18:1); read-out: IC50, inhibition of LPA-elicited Ca2+ responses
Procedure: RH7777 cells were transfected with the cDNA constructs encoding human Edg-2, Edg-4, or Edg-7 and then were subcloned into the pCDNA3 expression vector using the Cytofectene transfection reagent according to the manufacturers' protocol. Transfected cells were selected in DMEM containing 10% FBS and 1 mg/ml geneticin. Resistant cells were collected and subcloned by limiting dilution. The resulting clones were then screened using functional assays and RT-PCR analysis. […]
quantityKind: pIC50
Please report pIC50 as the negative decimal logarithm of the molar concentration, giving only the number.

Ask: Bench note: what pIC50 did CCCCCCCC(=O)OC[C@H](COP(=O)(O)OP(=O)(O)O)OC(=O)CCCCCCC [DGPP 8:0, diacylglycerol pyrophosphate] show?
Reply: 4.96

---

// reported melting point per item

Guide cases for melting point, answers given:
CCCCCCCCCCCCCCNC(=O)C(N)CO.O=C(O)C(F)(F)F (stereo not shown) | 168 to 171 °C
CCCCCCCCCCCCCCCCCCNC(=O)C(N)CO.O=C(O)C(F)(F)F (stereo not shown) | 170 to 172 °C
CCCCCCCCCCCCCCNC(=O)C(COP(=O)(OCc1ccccc1)OCc1ccccc1)NC(=O)OC(C)(C)C (stereo not shown) | 33 to 35 °C

We now examine a further compound.
Ask: Bench note: what melting point did CCCCCCCCCCCCCCNC(=O)C(CO)NC(=O)OC(C)(C)C (stereo not shown) show?
Reply: 59 to 62 °C
